Reported Boiling temperature at pressure P values follow for various compounds
Experiment: Boiling temperature at pressure P
Settings: 101.3 kPa; Liquid; Ebulliometric method (Recirculating still)
Numbers after ± are expanded uncertainties.

Incoming: Quick one: Boiling temperature at pressure P of C=CCO ?
Outgoing: 96.80 ± 0.4 °C

Incoming: Form field: reported Boiling temperature at pressure P of OCCO
Outgoing: 197.17 ± 0.4 °C

Incoming: // returns reported Boiling temperature at pressure P for input CN1CCCC1=O
Outgoing: 202.29 ± 0.4 °C

From here, focus on the item given below.
Incoming: Value lookup for Boiling temperature at pressure P; key = CNC=O [N-methylformamide]
Outgoing: 199.10 ± 0.4 °C
